// data source = PubChem BioAssay AID862

- method notes: blockers of STAT3 transcriptional signaling – U3A cells, luciferase, luminescence, MLSCN library, primary screen (AID 862);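 further: 0% = DMSO only wells and 100% = 100 µM nifuroxazide control wells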
- measurement context: IL-6 STAT3-luciferase reporter, at 5.5 µM, hits give high values, host cell line lacks STAT1
Screen size: about 190,000 compounds; about 1,700 (0.89%) were called active. The full list was thinned out, with actives kept by preference.
For each record, write down the corresponding inhibition.
Number in %, nothing else.

Identify inhibition associated with the compound "CCCCC(O)(CCCC)C(=O)NN(C(=O)CCl)c1ccccc1" 2.7

Identify inhibition associated with the compound "O=C(Nc1ccc(NC(=O)c2cccs2)cn1)c1ccco1" 48.3

Identify inhibition associated with the compound "Cc1cc(N/C=C\C(=O)c2ccc(Cl)c(Cl)c2)no1" -7.8

Identify inhibition associated with the compound "COc1cc(SC)ccc1C(=O)Nc1cc(C)ccn1" 55.6

Identify inhibition associated with the compound "Cc1noc(C)c1/C=N/Nc1ccc2ccccc2n1" -21.3

Identify inhibition associated with the compound "O=C(NCCOc1ccccc1)c1ccccc1" 20.1

Identify inhibition associated with the compound "Cc1cccc(-n2c(Cc3cc(=O)[nH]c(=O)[nH]3)nnc2SCC(=O)Nc2cccc(C(F)(F)F)c2)c1" 2

Identify inhibition associated with the compound "CCC(=O)Nc1ccc2c(c1)nc(CCN1CCN(C)CC1)n2C" 9.8

Identify inhibition associated with the compound "Cc1ccc(-n2ncc3c(=O)[nH]cnc32)c(C)c1" 10.7

Identify inhibition associated with the compound "COC(=O)CSc1ncnc2c1cnn2-c1ccc(C)cc1C" 23.1

Identify inhibition associated with the compound "COc1ccc(-n2ncc3c(N4CCCc5ccccc54)ncnc32)cc1" 30.9

Identify inhibition associated with the compound "COc1ccc(C(=O)NC(=S)Nc2ccc(Cl)cn2)cc1OC" 20.4

Identify inhibition associated with the compound "COc1ccccc1CNC(=O)c1ccc(SC)cc1OC" 11.4

Identify inhibition associated with the compound "O=C(Nc1ccccc1Cc1ccccc1)c1ccc2c(c1)SC1=NS(=O)(=O)CCN12" -8.5

Identify inhibition associated with the compound "CCN(CC)c1ccc(/C=N/Nc2nc(C)cc(=O)[nH]2)cc1" 46.4

Identify inhibition associated with the compound "O=C(Nc1ccc2nccnc2c1)c1ccco1" 14.3

Identify inhibition associated with the compound "COC(=O)Cc1ccc(NC(=S)NCc2ccco2)cc1" 2.5

Identify inhibition associated with the compound "COc1c(Cl)cc(C(=O)Nc2ccc(Cl)cn2)cc1Cl" -37.3

Identify inhibition associated with the compound "C(=N\Nc1ccc2ccccc2n1)/c1ccc2c(c1)OCO2" 91.2

Identify inhibition associated with the compound "CCn1c2ccccc2c2cc(NC(=O)COC(=O)c3cc(S(=O)(=O)N4CCCCC4)ccc3Cl)ccc21" 4

Identify inhibition associated with the compound "Cc1cc(NC(=O)c2cc(-c3cccs3)on2)nn1Cc1ccc(Cl)cc1" 47.2

Identify inhibition associated with the compound "Cc1ccc(Cn2ccc(NC(=O)c3cc(C(C)C)on3)n2)cc1" 15.3

Identify inhibition associated with the compound "O=C(O)CSCC(=O)Nc1ccc(C(F)(F)F)cc1" 6.5

Identify inhibition associated with the compound "O=C(COC(=O)c1ccc(O)cc1)Nc1nccs1" -5.6

Identify inhibition associated with the compound "Cc1nc2cc(NC(=O)NC3CC3)ccc2n1C" 7.5

Identify inhibition associated with the compound "COc1ccc(/C=C/C(=O)OCC(=O)NCc2cccs2)cc1OC" -9.7

Identify inhibition associated with the compound "COc1ccccc1NC(=O)c1c(Br)cnn1C" 25.4

Identify inhibition associated with the compound "O=C(Nc1ccc(Cl)cn1)c1ccc2c(c1)OCCO2" 70.2

Identify inhibition associated with the compound "Cc1cc(=O)[nH]c(N/N=C/c2c(C)nn(-c3ccccc3Cl)c2Cl)n1" 7.1

Identify inhibition associated with the compound "O=c1cc(O)c(-c2cccc(C(F)(F)F)c2)c(Cl)[nH]1" 5.9

Identify inhibition associated with the compound "Cc1ccc(NC(=O)C(=O)NCC2CCN(C(=O)c3cccc([N+](=O)[O-])c3)CC2)cc1" 6.1

Identify inhibition associated with the compound CC(=O)Nc1ccc(NC(=O)COc2ccc(S(=O)(=O)NC(C)c3ccccc3)cc2)cc1 (configuration not stated) 16.1

Identify inhibition associated with the compound "CN(c1ccccc1)c1nc(N)c([N+](=O)[O-])c(NCc2ccco2)n1" -0.4

Identify inhibition associated with the compound "CCN(/N=C/c1ccc(N(C)C)cc1)c1nc2ccccc2[nH]1" 1.9

Identify inhibition associated with the compound "NC1=NC(=O)S/C1=C\c1ccc(O)cc1" 3.3

Identify inhibition associated with the compound "CC(=O)NCCc1nc2cc(NC(=O)c3ccccc3)ccc2n1C" 15.8

Identify inhibition associated with the compound "COC(=O)CCNC(=O)c1ccc2[nH]c(C)c(C)c2c1" 11

Identify inhibition associated with the compound "c1ccc(-c2[nH]ncc2-c2nc3ccccc3[nH]2)cc1" 15.2

Identify inhibition associated with the compound "N=c1n(CCc2ccccc2)c2ccccc2n1Cc1ccccc1F" 0.2

Identify inhibition associated with the compound "COC(=O)c1sc(NC(=O)c2ccc(OC)cc2OC)nc1C" 86

Identify inhibition associated with the compound "COc1ccc(C(=O)/C=C/Nc2ccccn2)cc1" 97.2

Identify inhibition associated with the compound "CCCc1ccc(-c2csc(NC(=O)Cc3cccs3)n2)cc1" 43.7

Identify inhibition associated with the compound "CC(=O)N1CCc2cc(Br)cc(S(=O)(=O)CCC(=O)Nc3c(C)n(C)n(-c4ccccc4)c3=O)c21" -1.8

Identify inhibition associated with the compound "O=C(Nc1cccc(S(=O)(=O)Nc2ccc(Cl)cc2)c1)c1ccc2c(c1)OCCO2" 44.7

Identify inhibition associated with the compound "c1ccc2[nH]c(-c3nc4ccccc4[nH]3)nc2c1" 44.2

Identify inhibition associated with the compound "CCC(=O)OCCNc1nc(-c2ccccc2)nc2ccccc12" 1.5

Identify inhibition associated with the compound "COc1ccc(-n2ncc3c(N4CCc5ccccc54)ncnc32)cc1" 2.3

----------
For each record, write down the corresponding inhibition.
- method notes: blockers of STAT3 transcriptional signaling – U3A cells, luciferase, luminescence, MLSCN library, primary screen (AID 862);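 further: 0% = DMSO only wells and 100% = 100 µM nifuroxazide control wells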
- measurement context: IL-6 STAT3-luciferase reporter, at 5.5 µM, hits give high values, host cell line lacks STAT1
Among all 190,000 compounds or so, about 1,700 (0.89%) were called active. This is one part of a sample in which actives are shown more often than they occur.
Number in %, nothing else.

Identify inhibition associated with the molecule "O=C(Nc1ccn(Cc2ccc(F)cc2)n1)c1ccncc1" 22.9

Identify inhibition associated with the molecule "CN(c1ccc(OCC(=O)OCC(=O)Nc2cccc([N+](=O)[O-])c2)cc1)S(=O)(=O)c1ccc(F)cc1" 5.5

Identify inhibition associated with the molecule "Cn1nnnc1SCC(=O)Nc1nc2ccccc2s1" -2.9

Identify inhibition associated with the molecule "COc1ccc(-c2noc(-c3ccc(C)cc3)n2)cc1" 11.2

Identify inhibition associated with the molecule "COc1ccc(-c2noc(-c3cccc(OC)c3OC)n2)cc1OC" 9.5

Identify inhibition associated with the molecule "O=C(Nc1ccn(Cc2ccccc2)n1)c1cccc(F)c1" 12.5

Identify inhibition associated with the molecule "Cc1ccc(S(=O)(=O)N(C)C)cc1NC(=O)COC(=O)c1c(C)noc1C" 6.4

Identify inhibition associated with the molecule "O=C(Nc1ccn(Cc2ccccc2)n1)c1n[nH]c([N+](=O)[O-])c1Cl" 53.5

Identify inhibition associated with the molecule "Cc1ccc(CNC(=O)c2cccnc2Cl)cc1" 3.5

Identify inhibition associated with the molecule "O=C(Nc1ccc2cn[nH]c2c1)c1ccc(S(=O)(=O)N2CCOCC2)cc1" -32.5

Identify inhibition associated with the molecule O=c1c2ccccc2nc2n1C(CSc1ccc(F)cc1)CN2 (stereo unspecified) -2.2

----------
- method notes: blockers of STAT3 transcriptional signaling – U3A cells, luciferase, luminescence, MLSCN library, primary screen (AID 862);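 further: 0% = DMSO only wells and 100% = 100 µM nifuroxazide control wells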
- measurement context: IL-6 STAT3-luciferase reporter, at 5.5 µM, host cell line lacks STAT1
The campaign covered roughly 190,000 compounds. About 1,700 (0.89%) were called active.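 The calls were made as follows: active = inhibition above the mean inhibition across all screened compounds plus 3 SD (cut at about 44% in these data); inactive = the rest.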 This excerpt belongs to a sample that is enriched for actives.
The reply should name one outcome from active, inactive

Outcome? "CCCN(CC(=O)Nc1ccc(C(N)=O)cc1)CC(=O)Nc1ccccc1C" inactive

Outcome? "Cc1ccccc1NC(=O)CN1C(=O)N/C(=C\c2cccn2-c2cccc(C(=O)O)c2)C1=O" inactive

Outcome? CC(OC(=O)c1ccc2ccccc2n1)C(=O)c1ccccc1 (centres undefined) inactive

Outcome? CC1CC(C)CN(CCC(=O)Nc2ccc3c(c2)CCC3)C1 (centres undefined) inactive

Outcome? "c1ccc(-c2nc(NCc3ccco3)c3ccccc3n2)cc1" inactive

Outcome? "Cc1cc(N2CCN(Cc3ccc4c(c3)OCO4)CC2)n2ncnc2n1" inactive

Outcome? "COC(=O)c1c(NC(=O)CCCC(=O)O)sc2c1CCCCC2" inactive

Outcome? "CCOc1ccccc1NC(=O)c1cccnc1" inactive

Outcome? "Fc1ccc2[nH]c3c(N4CCN(Cc5ccc6c(c5)OCO6)CC4)ncnc3c2c1" active

Outcome? "Cc1ccccc1-n1nc(SCC(=O)O)sc1=S" inactive

Outcome? "O=C(CSc1nc2ccccc2c(=O)n1CCCO)N1CCc2ccccc21" inactive

Outcome? "O=c1[nH]oc(O)c1-c1ncc(C(F)(F)F)cc1Cl" inactive

Outcome? "Cc1cc(NC(=O)CSc2nc3c(cc2C#N)CCCCC3)no1" inactive

Outcome? "c1coc(CNc2ncnc3ccccc23)c1" active

Outcome? "FC(F)(F)c1cccc(Nc2ncnc3ccccc23)c1" inactive

Outcome? "CCOc1cccc(/C=C/c2ccc3ccccc3n2)c1OC(C)=O" active

Outcome? "COc1cccc(/C=C/c2ccc3ccccc3n2)c1OC(C)=O" active

Outcome? "CCCNC(=O)c1c(N)n(-c2ccc(S(N)(=O)=O)cc2)c2nc3ccccc3nc12" inactive

Outcome? "O=C(C/C(=N\NC(=O)c1ccccc1Br)C(F)(F)F)c1cccs1" inactive

Outcome? CCOc1ccc(NC(=O)CC2C(=O)N(c3ccccc3)C(=O)N2CCOC)cc1 (centres undefined) inactive

Outcome? CCC(C)NC(=O)c1c(N)n(/N=C/c2cccs2)c2nc3ccccc3nc12 (centres undefined) active

Outcome? "CCOC(=O)CSc1nc(C)cc2c1C(=O)OC2" inactive

Outcome? "O=C(CN1C2=NCCN2c2ccccc21)c1cccs1" inactive

Outcome? "COC(=O)Cn1cc(/C=C/[N+](=O)[O-])c2ccccc21" inactive
